target-desc: Runt-related transcription factor 1 (Homo sapiens) + Core-binding factor subunit beta (Homo sapiens) (UniProt Q01196+Q13951)
Sequence (Q01196 whole entry, looked up): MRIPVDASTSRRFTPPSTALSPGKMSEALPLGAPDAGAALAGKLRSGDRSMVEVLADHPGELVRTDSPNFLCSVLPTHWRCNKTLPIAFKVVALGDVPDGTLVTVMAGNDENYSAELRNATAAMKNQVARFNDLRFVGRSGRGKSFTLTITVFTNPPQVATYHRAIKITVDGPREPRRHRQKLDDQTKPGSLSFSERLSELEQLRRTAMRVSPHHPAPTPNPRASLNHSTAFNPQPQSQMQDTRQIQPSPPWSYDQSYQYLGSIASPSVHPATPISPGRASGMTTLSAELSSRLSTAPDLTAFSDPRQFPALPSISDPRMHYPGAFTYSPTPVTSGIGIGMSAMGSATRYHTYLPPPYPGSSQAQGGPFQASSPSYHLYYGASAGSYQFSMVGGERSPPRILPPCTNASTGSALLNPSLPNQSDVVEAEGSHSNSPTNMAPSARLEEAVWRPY
Sequence (Q13951 whole entry, looked up): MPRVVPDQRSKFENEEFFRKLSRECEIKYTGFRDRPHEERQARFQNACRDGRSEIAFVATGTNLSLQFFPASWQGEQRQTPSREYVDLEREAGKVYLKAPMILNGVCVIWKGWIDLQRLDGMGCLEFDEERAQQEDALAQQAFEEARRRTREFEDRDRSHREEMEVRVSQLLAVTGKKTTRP
assay-details: inhibitors of RUNX1 Runt–CBFb binding, primary screen, biochemical, FRET, Cerulean-Runt, Venus-CBFb, uHTS (AID 1496);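 note: 0% = DMSO wells and 100% = excess unlabeled CBFb competitor control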
stated-conditions: Cerulean-Runt/Venus-CBFb FRET ratio 530/480, 1 h; at 20 µM; stronger effect = higher value
The campaign covered roughly 220,000 compounds. About 990 (0.45%) were called active. The full list was thinned out, with actives kept by preference.
experimental-endpoint: inhibition (%)
Give the value, in units of %, as a plain number.

[in] Field request: inhibition | item: CCOC(=O)Cc1csc(SCc2cc(=O)oc3cc(O)ccc23)n1
[out] 77.8

[in] Field request: inhibition | item: CCn1c(=N)c(S(=O)(=O)c2ccc(F)cc2)cc2c(=O)n3ccccc3nc21
[out] 10.5

[in] Field request: inhibition | item: Cc1onc(-c2c(Cl)cccc2Cl)c1C(=O)NNC(=O)c1c(-c2c(Cl)cccc2Cl)noc1C
[out] 0.7

[in] Field request: inhibition | item: CC(C)Sc1nnc([C@H](Cc2ccccc2)NC(=O)OC(C)(C)C)o1
[out] 4.8

[in] Field request: inhibition | item: COc1ccc2nc(N3CCCC(O)C3)c(C#N)cc2c1 (stereo unspecified)
[out] 81.1

[in] Field request: inhibition | item: Cc1ccc(S(=O)(=O)Nc2ccc3ncccc3c2)cc1
[out] -1.3

[in] Field request: inhibition | item: COC(=O)Cc1cc(=O)oc2c(C)c(O)ccc12
[out] 19.3

[in] Field request: inhibition | item: C/C(=N/OC(=O)c1c(-c2c(F)cccc2Cl)noc1C)c1cnccn1
[out] -0.3

[in] Field request: inhibition | item: Cc1ccc(-n2c(=O)c(C#N)cc3c(=O)n4ccccc4nc32)cc1C
[out] 19.9

[in] Field request: inhibition | item: CCCc1cc(=O)oc2c(C)c(O)c(CN3CCCCC3)cc12
[out] 84.1

[in] Field request: inhibition | item: CCN(CC)CCn1c(N)c(S(=O)(=O)c2ccccc2)c2nc3ccccc3nc21
[out] 5.9

###

target-desc: Runt-related transcription factor 1 (Homo sapiens) + Core-binding factor subunit beta (Homo sapiens) (UniProt Q01196+Q13951)
assay-details: inhibitors of RUNX1 Runt–CBFb binding, primary screen, biochemical, FRET, Cerulean-Runt, Venus-CBFb, uHTS (AID 1496);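 note: 0% = DMSO wells and 100% = excess unlabeled CBFb competitor control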
stated-conditions: Cerulean-Runt/Venus-CBFb FRET ratio 530/480, 1 h; at 20 µM
The whole screen tested about 220,000 compounds, of which about 990 (0.45%) were called active.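 The calls were made as follows: active = inhibition over about 50% at 20 µM in the single-dose screen (limit read from the data); inactive = the rest.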 The list comes from a sample in which actives are over-represented; it also holds close analogues and randomly drawn compounds.
Can you answer with just one of these options? active, inactive

[in] Any idea what this test logged for NC(=O)C1(C(N)=O)OC1c1ccc(Cl)cc1Cl (stereo not given) ?
[out] inactive

[in] Any idea what this test logged for COC(=O)c1ccc(C(=O)OC)c(NC(=S)N2CCN(c3ccc(F)cc3)CC2)c1 ?
[out] inactive

[in] Any idea what this test logged for Cn1nnc(NC(=S)NC(=O)c2ccccc2)n1 ?
[out] inactive

[in] Any idea what this test logged for O=C(O)CCc1cccnc1 ?
[out] inactive

[in] Any idea what this test logged for COC(=O)C1=CN(C)C=C(C(=O)OC)C1c1ccc(Cl)cc1Cl ?
[out] active

[in] Any idea what this test logged for O=C(Cc1cccc2ccccc12)NNC(=O)Nc1ccc(Cl)cc1 ?
[out] inactive

[in] Any idea what this test logged for COc1ccc(-c2cn3ccc(C)cc3n2)cc1 ?
[out] inactive

[in] Any idea what this test logged for COCCNC(=S)N1CCN(C)CC1 ?
[out] inactive

[in] Any idea what this test logged for CC(/C=C/c1ccco1)=N/NC(=O)C1COc2ccccc2O1 (stereo not given) ?
[out] inactive

[in] Any idea what this test logged for O=c1[nH]c2ccccc2n2c(-c3ccccc3)nnc12 ?
[out] active

[in] Any idea what this test logged for COCCCNC(=S)NC(=O)c1ccc([N+](=O)[O-])cc1 ?
[out] inactive

[in] Any idea what this test logged for COC(=O)c1ccc(C(=O)OC)c(NC(=S)N2CCCCC2)c1 ?
[out] active

[in] Any idea what this test logged for COC(=O)c1ccc(C(=O)OC)c(NC(=S)N2CCN(c3cc(Cl)ccc3C)CC2)c1 ?
[out] inactive

[in] Any idea what this test logged for O=C1[C@@H]2C(c3cccnc3)=NO[C@@H]2C(=O)N1c1ccc(Cl)cc1Cl ?
[out] inactive

[in] Any idea what this test logged for Cc1noc(C)c1COC(=O)COc1ccc(-c2ccccc2)cc1 ?
[out] inactive

[in] Any idea what this test logged for O=C1CCCCC1C(=O)c1ccccc1 (stereo not given) ?
[out] inactive

[in] Any idea what this test logged for CCOc1ccccc1C1C(C(=O)OC)=CN(C)C=C1C(=O)OC ?
[out] inactive

[in] Any idea what this test logged for Nc1nc(NCC2CCCO2)nc(Nc2ccccc2F)c1[N+](=O)[O-] (stereo not given) ?
[out] inactive

[in] Any idea what this test logged for O=C(CSc1ccc(-c2ccco2)nn1)NCc1ccc2c(c1)OCO2 ?
[out] inactive

[in] Any idea what this test logged for Brc1ccc(CSc2ccc(-c3ccco3)nn2)cc1 ?
[out] active

[in] Any idea what this test logged for C=CCNC(=S)NNC(=O)c1cc(Cl)ccc1OC ?
[out] inactive

[in] Any idea what this test logged for CCOC(=O)c1ccc(NC(=O)c2nc[nH]c2C(=O)NCc2ccccc2)cc1 ?
[out] inactive

[in] Any idea what this test logged for O=C(Nc1nnc(CCN2CCCCC2)s1)c1cccc(Cl)c1 ?
[out] inactive

[in] Any idea what this test logged for Nc1c(Cl)cc(S(N)(=O)=O)cc1S(N)(=O)=O ?
[out] inactive

[in] Any idea what this test logged for O=C(NNc1cc(Cl)cc(Cl)c1)c1c(F)cccc1Cl ?
[out] inactive
